# system.name: furin, P09958;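 further: purified furin at 1:10 enzyme:substrate in 50 mM HEPES pH 7.5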
# Sequence (P09958 whole entry): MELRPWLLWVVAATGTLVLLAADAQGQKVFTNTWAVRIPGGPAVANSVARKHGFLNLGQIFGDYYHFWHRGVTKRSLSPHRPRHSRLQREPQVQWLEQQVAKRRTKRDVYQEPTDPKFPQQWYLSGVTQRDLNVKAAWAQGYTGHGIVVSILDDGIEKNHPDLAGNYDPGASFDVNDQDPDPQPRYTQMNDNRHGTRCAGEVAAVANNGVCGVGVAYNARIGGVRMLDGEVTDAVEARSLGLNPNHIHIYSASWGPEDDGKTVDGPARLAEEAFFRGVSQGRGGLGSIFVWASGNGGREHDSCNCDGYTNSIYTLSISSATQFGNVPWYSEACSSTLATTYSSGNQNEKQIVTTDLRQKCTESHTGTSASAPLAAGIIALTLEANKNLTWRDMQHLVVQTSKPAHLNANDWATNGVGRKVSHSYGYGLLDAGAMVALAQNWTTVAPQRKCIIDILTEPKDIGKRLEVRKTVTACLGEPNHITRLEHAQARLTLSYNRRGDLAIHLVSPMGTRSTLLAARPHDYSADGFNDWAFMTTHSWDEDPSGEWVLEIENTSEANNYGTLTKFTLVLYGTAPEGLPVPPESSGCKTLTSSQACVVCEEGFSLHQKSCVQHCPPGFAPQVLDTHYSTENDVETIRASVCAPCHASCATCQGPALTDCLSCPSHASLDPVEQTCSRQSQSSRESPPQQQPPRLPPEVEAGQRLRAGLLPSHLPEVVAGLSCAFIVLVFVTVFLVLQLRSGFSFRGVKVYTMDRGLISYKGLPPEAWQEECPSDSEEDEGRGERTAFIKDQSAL
# protocol.notes: furin cleavage Z-score vs untreated control; higher = more cleavage, active = 3.5 or more, inactive = 1 or less, 8 variable residues between constant flanks
# condition.summary: 7.5 min
This is one part of the list. The true hit rate is not given.
Categories are defined by ranges of furin cleavage Z-score, namely low bracket = under -0.4, middle bracket = from -0.4 up to 1, high bracket = 1 and over

Returns: class label. Input: CARNHRDAGAAGNASASA [FS-1756]
high bracket

Returns: class label. Input: CADVFVLNNTAGNASASA [HC428]
middle bracket

Returns: class label. Input: CAEVTTPCSGAGNASASA [HC1970]
middle bracket

Returns: class label. Input: CAENVTSTWVAGNASASA [HC2181]
middle bracket

Returns: class label. Input: CAHSAKSKFGAGNASASA [HC1418]
low bracket

Returns: class label. Input: CAATPCSGSWAGNASASA [HC1823]
low bracket

Returns: class label. Input: CACTPCSAHLAGNASASA [HC2480]
high bracket

Returns: class label. Input: CAELVTSTWVAGNASASA [HC2165]
high bracket

Returns: class label. Input: CAECEVPCHRAGNASASA [HC2460]
high bracket

Returns: class label. Input: CACRAAGLQDAGNASASA [HC1522]
low bracket

Returns: class label. Input: CAFGYGAKDVAGNASASA [HC1421]
middle bracket

Returns: class label. Input: CARRKRHDIAAGNASASA [FS-3053]
high bracket

Returns: class label. Input: CASYLKGSSGAGNASASA [HC740]
middle bracket

Returns: class label. Input: CASTPCSAALAGNASASA [HC2543]
low bracket
